- assay.remarks: Half life in rat
- Type: ADME, organism-based
- cond: in vivo
observation.type: half-life (h)
Give bare numbers, in h.

Field half-life (entry COc1ccc(-n2nc(C[C@H](C(=O)O)c3cccc(C)c3)cc2-c2ccc(Cl)c(Cl)c2)cc1 ) reads 5.6
